Item-by-item account of pKd
# experimental_target: T1, BRD^Baz2B L2127V (human, UniProt Q9UIF8 2054-2168, L2127V, fluorescent label (Monolith NT Protein Labelling Kit RED-NHS))
# T1 construct: bromodomain (BRD) of human Baz2B with a cancer-associated point mutation, made on pNIC28-Bsa4-BAZ2B-BRD; Same limits as m1; mutation found in breast cancer; source: E. coli BL21(DE3)-R3-pRARE2, purified (Ni-NTA, Sephadex 75)
# T1 sequence: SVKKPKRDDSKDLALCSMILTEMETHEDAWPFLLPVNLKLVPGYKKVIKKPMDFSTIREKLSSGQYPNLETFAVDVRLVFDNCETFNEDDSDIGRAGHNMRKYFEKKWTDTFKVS
# protocol_description: MST; 100 nM fluorescently labelled (RED-NHS) BRD^Baz2B, peptide (H3 or H3K14ac) titrated; MST buffer 150 mM Tris-HCl, 50 mM NaCl, 10 mM MgCl2, pH 7.6, 0.0025% Pluronic, 200 ng/ul BSA; 25 C, 20% MST power; at least triplicate
# experimental_context: both partners purified
Quick note: pKd means taking -log10 of the concentration in moles per liter.

{"binder": "Ac-TARKSTGGKAPRKQL-NH2 (N-terminal tail of histone H3, residues 6-20; also called unmodified H3 peptide; unmodified H3K14 tail peptide; source: synthetic peptide, bought: alta Bioscience) [H3 peptide (Ac-TARKSTGGKAPRKQL-NH2)]", "pKd": 5.77}

Ac-TARKSTGGK(Ac)APRKQL-NH2 (N-terminal tail of histone H3, residues 6-20; also called acetylated H3 tail peptide; acetylated at K14 (K14ac) N-terminal H3 histone tail peptide; source: synthetic peptide, bought: alta Bioscience) [H3K14ac peptide (Ac-TARKSTGGK(ac)APRKQL-NH2)] yielded pKd of 4.52
